Biological target: Arabidopsis thaliana SHMT
Assay: SHMT activity assay (ED50 SHMT), coupled with N5,N10-CH2-THF dehydrogenase, NADH at 340 nm
Format: biochemical
Conditions: inhibition of initial velocity of Arabidopsis thaliana SHMT
pEC50: −log10 of the molar value.
Readings of pEC50 for the listed compounds

Here are 7 compounds together with their reported answers.
Cc1n[nH]c2c1C(c1ccc(-c3ccsc3)s1)(C1CCC1)C(C#N)=C(N)O2 (racemic)
> 8.00
CCC1(c2cc(C)co2)C(C#N)=C(N)Oc2[nH]nc(C)c21 (centres unmarked)
> 5.00
Cc1n[nH]c2c1C(c1cc(-c3cccc(C(F)(F)F)c3)cs1)(C1CCC1)C(C#N)=C(N)O2 (centres unmarked)
> 6.00
Cc1n[nH]c2c1C(c1ccc3c(c1)OCCO3)(C1(F)CC1)C(C#N)=C(N)O2 (racemic)
> 7.00
Cc1n[nH]c2c1C(c1ccc(-c3ccc(F)cc3)s1)(C1CCC1)C(C#N)=C(N)O2 (centres unmarked)
> 8.00
Cc1n[nH]c2c1C(c1ccc(-c3ccccc3)s1)(C1CCC1)C(C#N)=C(N)O2 (centres unmarked)
> 8.00
Cc1n[nH]c2c1C(c1ccc(-c3cccc(C(F)(F)F)c3)s1)(C1CCC1)C(C#N)=C(N)O2 (centres unmarked)
> 8.00

Data request: Short answer please: pEC50, Arabidopsis thaliana SHMT, entry CCC1(c2ccc3c(c2)C(C)(C)CCC3(C)C)C(C#N)=C(N)Oc2[nH]nc(C)c21 (centres unmarked)
Data returned: > 6.00

---

Biological target: Arabidopsis thaliana SHMT
Assay: SHMT activity assay (ED50 SHMT), coupled with N5,N10-CH2-THF dehydrogenase, NADH at 340 nm
Assay type: biochemical
Conditions: Table 2; values given as upper bounds
pEC50: −log10 of the molar value.
Documented pEC50 across a set of compounds

Field: example entries. Status: answers known.
CCC1(c2ccc(OC)c(OC)c2)C(C#N)=C(N)Oc2[nH]nc(C)c21 (centres unmarked)
> 6.00
Cc1n[nH]c2c1C(c1cc(OCC#N)cc(C(F)(F)F)c1)(C1CCC1)C(C#N)=C(N)O2 (centres unmarked)
> 7.00
CCc1n[nH]c2c1C(c1cc(C#N)cc(C#N)c1)(C(C)C)C(C#N)=C(N)O2 (centres unmarked)
> 8.00
CCCC1(c2cc(C#N)cc(C(F)(F)F)c2)C(C#N)=C(N)Oc2[nH]nc(CC)c21 (centres unmarked)
> 8.00
Cc1n[nH]c2c1C(c1cc(Cl)cc(Cl)c1)(C1(F)COC1)C(C#N)=C(N)O2 (racemic)
> 7.00

Now turn to the next compound.
Data request: Which pEC50 is listed for COc1ccc(C2(C3CCC3)C(C#N)=C(N)Oc3[nH]nc(C)c32)cc1C#N (centres unmarked) ?
Data returned: > 8.00

---

Biological target: Arabidopsis thaliana SHMT
Assay: SHMT activity assay (ED50 SHMT), coupled with N5,N10-CH2-THF dehydrogenase, NADH at 340 nm
Assay type: biochemical
Conditions: Table 2; values given as upper bounds
PROPERTY NAME: EC50

CCC1(c2cccc(Cl)c2)C(C#N)=C(N)Oc2[nH]nc(C(F)F)c21 (stereo not drawn) [Compound 2.165.]
< 1000 nM
CCc1n[nH]c2c1C(CC)(c1cccc(C(F)(F)F)c1)C(C#N)=C(N)O2 (stereo not drawn) [Compound 2.98.]
< 1000 nM
CCCc1n[nH]c2c1C(CC)(c1cc(Cl)cc(Cl)c1)C(C#N)=C(N)O2 (stereo not drawn) [Compound 2.110.]
< 1000 nM
Cc1n[nH]c2c1C(c1cccc(C(F)(F)F)c1)(C1CCCC1)C(C#N)=C(N)O2 (stereo not drawn) [Compound 2.213.]
< 10 nM
Cc1n[nH]c2c1C(c1cc(Cl)cc(Oc3ccc(F)cc3)c1)(C1CCC1)C(C#N)=C(N)O2 (stereo not drawn) [Compound 2.201.]
< 100 nM
CCc1n[nH]c2c1C(c1ccc(Cl)cc1)(C1CCC1)C(C#N)=C(N)O2 (stereo not drawn) [Compound 2.139.]
< 1000 nM

Data request: Quick one: EC50 of COc1c(F)cc(C2(C3(F)CC3)C(C#N)=C(N)Oc3[nH]nc(C)c32)cc1F (stereo not drawn) [Compound 2.448] ?
Data returned: < 1000 nM

Data request: What measured EC50 goes with Cc1n[nH]c2c1C(c1cc(Cl)cc(NS(=O)(=O)c3ccccc3)c1)(C1CCC1)C(C#N)=C(N)O2 (stereo not drawn) [Compound 2.490] ?
Data returned: < 10 nM

Data request: // query EC50 value for entry Cc1n[nH]c2c1C(c1ccc(CC(=O)O)c(C#N)c1)(C1CCC1)C(C#N)=C(N)O2 (racemic) [Compound 2.541]
Data returned: < 1000 nM

Data request: # get_value(readout='EC50', item= COc1c(Br)cc(C2(C3CCC3)C(C#N)=C(N)Oc3[nH]nc(C)c32)cc1C#N (stereo not drawn) [Compound 2.492] )
Data returned: < 10 nM

Data request: Request the reported EC50 associated with Cc1n[nH]c2c1C(c1cc(C#N)cc(N(C)S(C)(=O)=O)c1)(C1CCC1)C(C#N)=C(N)O2 (stereo not drawn) [Compound 2.617]
Data returned: < 10 nM

Data request: EC50 for CCCC1(c2cc(C#N)cc(C(F)(F)F)c2)C(C#N)=C(N)Oc2[nH]nc(C(C)C)c21 (stereo not drawn) [Compound 2.582] ?
Data returned: < 10 nM

Data request: Look up EC50: CCC1(c2cc(Br)cc(C#N)c2)C(C#N)=C(N)Oc2[nH]nc(COC)c21 (stereo not drawn) [Compound 2.590]
Data returned: < 1000 nM

Data request: Entry Cc1n[nH]c2c1C(c1ccc(CCC(=O)O)c(C(F)(F)F)c1)(C1CCC1)C(C#N)=C(N)O2 (stereo not drawn) [Compound 2.543] : reported EC50 = ?
Data returned: < 100 nM

Data request: Which EC50 is listed for COCCOCC(=O)N(C)c1cc(C#N)cc(C2(C3CCC3)C(C#N)=C(N)Oc3[nH]nc(C)c32)c1 (stereo not drawn) [Compound 2.616] ?
Data returned: < 10 nM

---

Below: a set of entries, each annotated with reported pEC50.
Molecular target: Arabidopsis thaliana SHMT
Experiment: SHMT activity assay (ED50 SHMT), coupled with N5,N10-CH2-THF dehydrogenase, NADH at 340 nm
Format: biochemical
Conditions: inhibition of initial velocity of Arabidopsis thaliana SHMT
pEC50: −log10 of the molar value.

Cc1n[nH]c2c1C(c1ccc(-c3cccc(Cl)c3)s1)(C1CCC1)C(C#N)=C(N)O2 (stereo not shown) [Compound 4.6]
> 8.00
Cc1n[nH]c2c1C(c1cc(-c3ccsc3)cs1)(C1CCC1)C(C#N)=C(N)O2 (stereo not shown) [Compound 4.33]
> 8.00
Cc1n[nH]c2c1C(c1ccc(-c3cccc(F)c3)s1)(C1CC1)C(C#N)=C(N)O2 (stereo not shown) [Compound 4.56]
> 7.00
Cc1n[nH]c2c1C(c1ccc3ccccc3c1)(C1(F)CC1)C(C#N)=C(N)O2 (racemic) [Compound 4.59]
> 7.00
Cc1n[nH]c2c1C(c1cncc(C(F)(F)F)c1)(C1CCC1)C(C#N)=C(N)O2 (stereo not shown) [Compound 4.35]
> 8.00

Data request: Which value of pEC50 has been reported for Cc1n[nH]c2c1C(C(C)C)(C(F)(F)c1cccc(Cl)c1)C(C#N)=C(N)O2 (stereo not shown) [Compound 4.67] in the records?
Data returned: > 6.00

Data request: Returns the measured pEC50 for the input compound. Input: Cc1n[nH]c2c1C(c1ccc3c(c1)OC(F)(F)O3)(C1(F)COC1)C(C#N)=C(N)O2 (racemic) [Compound 4.84]
Data returned: > 5.00

Data request: Query: pEC50; subject: Cc1n[nH]c2c1C(c1ccc(-c3ccco3)s1)(C1CCC1)C(C#N)=C(N)O2 (stereo not shown) [Compound 4.3]
Data returned: > 8.00

Data request: Please give the measured pEC50 for this compound: CCC1(c2ccc3[nH]c(=O)oc3c2)C(C#N)=C(N)Oc2[nH]nc(C)c21 (stereo not shown) [Compound 4.72]
Data returned: > 6.00

Data request: For the compound Cc1n[nH]c2c1C(c1cc(-c3ccccc3)cs1)(C1CC1)C(C#N)=C(N)O2 (stereo not shown) [Compound 4.64] , what pEC50 is on record?
Data returned: > 6.00

Data request: Look up pEC50 for this compound: CCC1(CCc2ccccc2)C(C#N)=C(N)Oc2[nH]nc(C)c21 (stereo not shown) [Compound 4.76]
Data returned: > 6.00

Data request: Name the reported pEC50 value associated with the compound Cc1n[nH]c2c1C(c1ccc3c(c1)nnn3C(C)C)(C1CCC1)C(C#N)=C(N)O2 (stereo not shown) [Compound 4.42]
Data returned: > 8.00

---

Molecular target: Arabidopsis thaliana SHMT
Experiment: SHMT activity assay (ED50 SHMT), coupled with N5,N10-CH2-THF dehydrogenase, NADH at 340 nm
Assay type: biochemical
Conditions: Table 2, Arabidopsis thaliana SHMT enzyme assay; values given as upper bounds
pEC50: −log10 of the molar value.
PROPERTY NAME: pEC50

Cc1n[nH]c2c1C(c1cc(Cl)cc(-c3ccoc3)c1)(C1CCC1)C(C#N)=C(N)O2 (stereo not shown)
> 8.00
Cc1n[nH]c2c1C(c1cc(C#N)cc(-c3ccc(C(F)(F)F)cc3)c1)(C1CCC1)C(C#N)=C(N)O2 (stereo not shown)
> 8.00
Cc1n[nH]c2c1C(c1cc(C#N)cc(-c3ccc(F)cc3)c1)(C1CCC1)C(C#N)=C(N)O2 (stereo not shown)
> 8.00
Cc1n[nH]c2c1C(c1cc(C#N)cc(-c3ccccc3)c1)(C1CCC1)C(C#N)=C(N)O2 (stereo not shown)
> 7.00
Cc1n[nH]c2c1C(c1cc(I)cc(I)c1)(C1CCC1)C(C#N)=C(N)O2 (stereo not shown)
> 8.00

Data request: Could you share which pEC50 value was measured for COc1c(Cl)cc(C2(C(C)C)C(C#N)=C(N)Oc3[nH]nc(C)c32)cc1Cl (stereo not shown) ?
Data returned: > 8.00

Data request: Reported pEC50 for Cc1n[nH]c2c1C(c1cc(F)cc(C#N)c1)(C1CCC1)C(C#N)=C(N)O2 (stereo not shown) : what is it?
Data returned: > 8.00

Data request: What value of measured pEC50 is listed for COc1c(Cl)cc(C2(C3CCC3)C(C#N)=C(N)Oc3[nH]ncc32)cc1Cl (stereo not shown) ?
Data returned: > 8.00

Data request: So what's the measured pEC50 for this one? COc1ccc(C2(C3(F)CC3)C(C#N)=C(N)Oc3[nH]nc(C)c32)cc1C(F)(F)F (stereo not shown)
Data returned: > 8.00

Data request: Form field: reported pEC50 of N#CC1=C(N)Oc2[nH]nc(O)c2C1(c1cc(F)cc(Cl)c1)C1CCC1 (stereo not shown)
Data returned: > 5.00

Data request: Name the reported pEC50 value associated with the molecule N#CC1=C(N)Oc2[nH]ncc2C1(c1cc(C#N)cc(C(F)(F)F)c1)C1CC1 (stereo not shown)
Data returned: > 7.00

Data request: Query (molecule): CCOc1n[nH]c2c1C(c1cc(C#N)cc(C(F)(F)F)c1)(C1CCC1)C(C#N)=C(N)O2 (stereo not shown) ; field requested: pEC50
Data returned: > 7.00

Data request: Report pEC50 for Cc1n[nH]c2c1C(c1cc(Cl)cc(C#N)c1)(C1CC=CC1)C(C#N)=C(N)O2 (stereo not shown) please.
Data returned: > 8.00

Data request: Look at this molecule and give its reported pEC50. CCOc1n[nH]c2c1C(c1cc(C#N)cc(C(F)(F)F)c1)(C1CC1)C(C#N)=C(N)O2 (stereo not shown)
Data returned: > 6.00

Data request: Record request: pEC50 value, item Cc1n[nH]c2c1C(c1cc(C#N)cc(-c3nnn[nH]3)c1)(C1CCC1)C(C#N)=C(N)O2 (stereo not shown)
Data returned: > 7.00

Data request: Quick one: pEC50 of Cc1n[nH]c2c1C(c1cc(Cl)cc(-c3ccc(F)cc3)c1)(C1CCC1)C(C#N)=C(N)O2 (stereo not shown) ?
Data returned: > 8.00
